pEC50 values for the molecules below.
Molecular target: human α1A‐adrenoceptor (Homo sapiens)
Construct: expressed in transfected cells; host or cells: CHO-K1
Sequence (P35348 whole entry): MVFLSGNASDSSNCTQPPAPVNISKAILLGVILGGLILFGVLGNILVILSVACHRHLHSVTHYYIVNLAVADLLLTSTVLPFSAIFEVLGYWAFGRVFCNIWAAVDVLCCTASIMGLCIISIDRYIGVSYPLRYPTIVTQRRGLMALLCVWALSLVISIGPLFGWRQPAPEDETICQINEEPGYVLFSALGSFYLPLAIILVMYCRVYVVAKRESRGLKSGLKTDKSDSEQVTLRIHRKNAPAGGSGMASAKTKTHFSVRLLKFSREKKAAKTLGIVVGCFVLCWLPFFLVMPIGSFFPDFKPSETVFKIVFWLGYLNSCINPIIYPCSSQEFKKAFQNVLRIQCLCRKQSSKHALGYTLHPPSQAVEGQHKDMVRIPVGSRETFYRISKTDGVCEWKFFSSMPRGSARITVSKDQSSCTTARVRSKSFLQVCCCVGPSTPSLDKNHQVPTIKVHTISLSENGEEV
Assay: ^3H‐cAMP accumulation in the presence of 10 μM forskolin, CHO‐α1A cells
Type: cell-based
pEC50: −log10 of the molar value.

{"columns": ["molecule", "pEC50"],
 "data": [
  ["CNCC(O)c1ccc(O)cc1 (stereo not shown) [Synephrine]", 5.15],
  ["Cc1cc(C(C)(C)C)cc(C)c1CC1=NCCN1 [Xylometazoline]", 7.52],
  ["C=CCc1ccccc1OC(C)C1=NCCN1 (stereo not shown) [Allyphenyline]", 8.10],
  ["CN[C@@H](C)[C@H](O)c1ccccc1 [Ephedrine]", 4.15]
]}
